# protocolDescription: Evaluation of solubility in 50 mM phosphate buffer (PPB, pH 6.5)
# Format: physicochemical
# protocolConditions: 50 mM phosphate buffer pH 6.5, 37° C., 1 atm, 22 to 24 hours
# Experimental: To an excess amount of lyophilized powder of the compound, 50 mM phosphate buffer (PPB: Phosphate buffer, pH 6.5) is added, and after shaking (37° C., 1 atm, 1800 rpm, for 22 to 24 hours), the mixture is filtered with a filter, and the compound concentration of the filtrate is measured by LC/MS/MS. Solubility (μg/mL) is calculated from the measured compound concentration. Solubility (g/mL) was calculated from the measured compound concentration.
Bridge positions count the residues as written; N and C are the ends. Square brackets hold non-standard residues; d marks the D form. Peptide text beside a SMILES is read from it. * marks the point of attachment. Ala(4-thiazolyl) = N[C@@H](Cc1cscn1)C(=O)O; NMeNle(6-CHF2) = CN[C@@H](CCCCC(F)F)C(=O)O; NMehPhe = CN[C@@H](CCc1ccccc1)C(=O)O; NMeF = CN[C@@H](Cc1ccccc1)C(=O)O; Pyrrolidide = C1CCN(*)C1; dNMeA = CN[C@H](C)C(=O)O
measuredProperty: solubility (µg/mL)
# output: bare number, implied unit µg/mL

Entry CC[C@H](C)[C@@H]1NC(=O)[C@H](Cc2ccccc2)N(C)C(=O)[C@H](Cc2cscn2)NC(=O)[C@@H](C)N(C)C(=O)C[C@@H](C(=O)N2CCCC2)NC(=O)[C@@H]2CCCN2C(=O)[C@H](CCCCC(F)F)N(C)C(=O)CNC(=O)[C@H](Cc2ccccc2)N(C)C(=O)[C@@H]2CCCN2C(=O)[C@H](CCc2ccccc2)N(C)C1=O [Compound 4] ([dNMeA][Ala(4-thiazolyl)][NMeF]I[NMehPhe]P[NMeF]G[NMeNle(6-CHF2)]PD-Pyrrolidide; lactam N-11) has what solubility?
103

###

# protocolDescription: Evaluation of Caco-2 membrane permeability
# protocolConditions: human, Caco-2, pH 6.5, Permeability coefficient (Caco-2 Papp), With 5 mM lauroyl-L-carnitine, FaSSIF/HBSS buffer pH 6.5 apical
Bridge positions count the residues as written; N and C are the ends. Square brackets hold non-standard residues; d marks the D form. Peptide text beside a SMILES is read from it. * marks the point of attachment. Ala(4-thiazolyl) = N[C@@H](Cc1cscn1)C(=O)O; NMeNle(6-CHF2) = CN[C@@H](CCCCC(F)F)C(=O)O; Phe(3-Cl) = N[C@@H](Cc1cccc(Cl)c1)C(=O)O; NMehPhe = CN[C@@H](CCc1ccccc1)C(=O)O; NMeF = CN[C@@H](Cc1ccccc1)C(=O)O; NMeD = CN[C@@H](CC(=O)O)C(=O)O; NMeS = CN[C@@H](CO)C(=O)O; Pip = O=C(O)[C@@H]1CCCCN1; Nle = CCCC[C@H](N)C(=O)O; Pyrrolidide = C1CCN(*)C1; dNMeA = CN[C@H](C)C(=O)O; Propyl = CCC*
measuredProperty: Papp A→B at 180 min (×10⁻⁶ cm/s)
# output: bare number, implied unit ×10⁻⁶ cm/s

Some molecules with known Papp A→B at 180 min results, for comparison:
molecule | Papp A→B at 180 min / ×10⁻⁶ cm/s
CC[C@H](C)[C@@H]1NC(=O)[C@H](Cc2ccccc2)N(C)C(=O)[C@H](Cc2cscn2)NC(=O)[C@@H](C)N(C)C(=O)C[C@@H](C(=O)N2CCCC2)NC(=O)[C@@H]2CCCN2C(=O)[C@H](CCCCC(F)F)N(C)C(=O)CNC(=O)[C@H](Cc2ccccc2)N(C)C(=O)[C@@H]2CCCN2C(=O)[C@H](CCc2ccccc2)N(C)C1=O [Compound 4] ([dNMeA][Ala(4-thiazolyl)][NMeF]I[NMehPhe]P[NMeF]G[NMeNle(6-CHF2)]PD-Pyrrolidide; lactam N-11) | 0.012
CCCC[C@@H]1NC(=O)[C@@H]2CCCN2C(=O)[C@H](CCCC)NC(=O)[C@@H](C)N(C)C(=O)C[C@@H](C(=O)N2CCCC2)N(C)C(=O)[C@@H]2CCCN2C(=O)[C@H]([C@@H](C)CC)NC(=O)[C@@H]2CCCCN2C(=O)[C@H](Cc2cccc(Cl)c2)NC(=O)[C@H](COCCC)N(C)C(=O)[C@H](Cc2ccccc2)N(C)C1=O [Compound 5] ([dNMeA][Nle]P[Nle][NMeF][NMeS](Propyl)[Phe(3-Cl)][Pip]IP[NMeD]-Pyrrolidide; lactam N-11) | 0.0264

Entry CC[C@H](C)[C@@H]1NC(=O)[C@H](Cc2ccccc2)N(C)C(=O)CN(C)C(=O)C[C@@H](C(=O)N2CCCCC2)NC(=O)[C@H](CC(C)C)N(C)C(=O)[C@H](COC(C)(C)C)NC(=O)[C@H](CC(C)C)N(C)C(=O)[C@H](CCc2ccccc2)N(C)C(=O)CN(C)C(=O)[C@H]([C@@H](C)O)NC(=O)[C@H](CC(C)C)N(C)C1=O (stereo in doubt) has what Papp A→B at 180 min?
0.526

###

# protocolDescription: Evaluation of Caco-2 membrane permeability
# protocolConditions: human, Caco-2, pH 6.5, Permeability coefficient (Caco-2 Papp), With 5 mM lauroyl-L-carnitine, FaSSIF/HBSS buffer pH 6.5 apical
Form field: Papp A→B at 180 min (one value per entry).
# output: bare number, implied unit ×10⁻⁶ cm/s

Some molecules with known Papp A→B at 180 min results, for comparison:
molecule | resultUnit | Papp A→B at 180 min
CC[C@H](C)[C@@H]1NC(=O)C(CC(C)C)N(C)C(=O)CC(C(=O)N(C)C)N(C)C(=O)[C@H](C2CCCC2)N(C)C(=O)C(C)NC(=O)C(C)N(C)C(=O)[C@H](CCc2ccc(C(F)(F)F)c(Cl)c2)NC(=O)CN(C)C(=O)[C@H](CC2CCCCC2)N(C)C(=O)[C@@H]2CCN2C(=O)[C@H](C)N(C)C1=O (single isomer, unassigned) | ×10⁻⁶ cm/s | 0.0214
CC[C@H](C)[C@@H]1NC(=O)[C@H](CC(C)C)N(C)C(=O)CC(C(=O)N2CCCCC2)N(C)C(=O)[C@H](C2CCCC2)N(C)C(=O)C2(CCCC2)NC(=O)[C@@H]2CCCN2C(=O)[C@H](CCc2ccc(C(F)(F)F)c(Cl)c2)NC(=O)CN(C)C(=O)[C@H](CC2CCCCC2)N(C)C(=O)[C@@H]2CCN2C(=O)[C@H](C)N(C)C1=O (single isomer, unassigned) | ×10⁻⁶ cm/s | 0.154

Could you now consider this next molecule?
Entry CC[C@H](C)[C@@H]1NC(=O)[C@H](CC(C)C)N(C)C(=O)CC(C(=O)N2CCOCC2)N(C)C(=O)[C@H](C2CCCC2)N(C)C(=O)C2(CCCC2)NC(=O)[C@@H]2CCCN2C(=O)[C@H](CCc2ccc(C(F)(F)F)c(Cl)c2)NC(=O)CN(C)C(=O)[C@H](CC2CCCCC2)N(C)C(=O)[C@@H]2CCN2C(=O)[C@H](C)N(C)C1=O (single isomer, unassigned) has what Papp A→B at 180 min?
0.265
